- Tested on: 997726-040-R-J2-PDC tumor spheroids, viability;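 also: spheroids exposed to compounds for seven days before readout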
- EXPERIMENT_SUMMARY: Anticancer human tumor 997726-040-R-J2-PDC patient-derived squamous cell lung carcinoma cell line growth inhibition [PI3K]
- PARTICULARS: second compound 0.0316 µM; first compound 0.0316 µM; active compounds read low; spheroids with HUVEC and MSC
VALUE_KIND: viability, T/C (%)
Kindly answer with a numeric value in %, unit omitted.

Some solved cases for reference:
// sample Cn1ncc(Cl)c1-c1cc(C(=O)NC(CN)Cc2cccc(F)c2)sc1Cl (stereo unspecified) + Cc1nc(NC(=O)N2CCCC2C(N)=O)sc1-c1ccnc(C(C)(C)C(F)(F)F)c1 , its viability, T/C was 68

compound Cn1ncc(Cl)c1-c1cc(C(=O)NC(CN)Cc2cccc(F)c2)sc1Cl (stereo unspecified) + COc1c(OCCCN2CCOCC2)ccc2c3n(c(=NC(=O)c4cnc(N)nc4)nc12)CCN3 , viability, T/C observed: 30.6

Briefly, viability, T/C measured for CC1(C)CCC(Nc2ncc(C(F)(F)F)c(-c3c[nH]c4c(P(C)(C)=O)c(C#N)ccc34)n2)CN1 (stereo unspecified) + CC(Nc1ncnc2nc[nH]c12)c1cc2cccc(Cl)c2c(=O)n1-c1ccccc1 : 48.9

// Cn1ncc(Cl)c1-c1cc(C(=O)NC(CN)Cc2cccc(F)c2)sc1Cl (stereo unspecified) + CC(Nc1ccc2c(c1)OCCn1cc(N3C(=O)OCC3C(F)F)nc1-2)C(N)=O : viability, T/C value = 50.1

Please fill in: viability, T/C reported for CC(Cn1ccc(-c2ccc(C#N)c(Cl)c2)n1)NC(=O)c1cc(C(C)O)[nH]n1 (stereo unspecified) + CC(Nc1ccc2c(c1)OCCn1cc(N3C(=O)OCC3C(F)F)nc1-2)C(N)=O = 61.1

Continuing:
get_value(item= CCN1CCN(Cc2ccc(Nc3ncc(F)c(-c4cc(F)c5nc(C)n(C(C)C)c5c4)n3)nc2)CC1 + COc1c(OCCCN2CCOCC2)ccc2c3n(c(=NC(=O)c4cnc(N)nc4)nc12)CCN3 , readout=viability, T/C) returns 29.5

viability, T/C reported for this compound CC1(C)CCC(CN2CCN(c3ccc(C(=O)NS(=O)(=O)c4ccc(NCC5CCOCC5)c([N+](=O)[O-])c4)c(Oc4cnc5[nH]ccc5c4)c3)CC2)=C(c2ccc(Cl)cc2)C1 + CC(Nc1ccc2c(c1)OCCn1cc(N3C(=O)OCC3C(F)F)nc1-2)C(N)=O : 60.8

Lab note: measured viability, T/C of CC(Cn1ccc(-c2ccc(C#N)c(Cl)c2)n1)NC(=O)c1cc(C(C)O)[nH]n1 (stereo unspecified) + Cc1nc(NC(=O)N2CCCC2C(N)=O)sc1-c1ccnc(C(C)(C)C(F)(F)F)c1 was 88.7

C[C@@H](NC(=O)c1ncnc(N)c1Cl)c1ncc(C(=O)Nc2cc(C(F)(F)F)c(Cl)cn2)s1 + CC(Nc1ccc2c(c1)OCCn1cc(N3C(=O)OCC3C(F)F)nc1-2)C(N)=O has a reported viability, T/C of 67

For reference, reported viability, T/C for CC1(C)CCC(Nc2ncc(C(F)(F)F)c(-c3c[nH]c4c(P(C)(C)=O)c(C#N)ccc34)n2)CN1 (stereo unspecified) + CC(Nc1ccc2c(c1)OCCn1cc(N3C(=O)OCC3C(F)F)nc1-2)C(N)=O stands at 25.6

Notebook: C#Cc1c(F)ccc2cc(O)cc(-c3ncc4c(N5CC6CCC(C5)N6)nc(OCC56CCCN5CC(F)C6)nc4c3F)c12 (stereo unspecified) + CC(Nc1ccc2c(c1)OCCn1cc(N3C(=O)OCC3C(F)F)nc1-2)C(N)=O , viability, T/C read as 62.4

Cited source: PubChem BioAssay AID1963964
